- Study target: hMR (Homo sapiens, UniProt P08235)
- Construct: expressed in transfected cells; host or cells: HEK 293T
- Sequence (P08235 1-984): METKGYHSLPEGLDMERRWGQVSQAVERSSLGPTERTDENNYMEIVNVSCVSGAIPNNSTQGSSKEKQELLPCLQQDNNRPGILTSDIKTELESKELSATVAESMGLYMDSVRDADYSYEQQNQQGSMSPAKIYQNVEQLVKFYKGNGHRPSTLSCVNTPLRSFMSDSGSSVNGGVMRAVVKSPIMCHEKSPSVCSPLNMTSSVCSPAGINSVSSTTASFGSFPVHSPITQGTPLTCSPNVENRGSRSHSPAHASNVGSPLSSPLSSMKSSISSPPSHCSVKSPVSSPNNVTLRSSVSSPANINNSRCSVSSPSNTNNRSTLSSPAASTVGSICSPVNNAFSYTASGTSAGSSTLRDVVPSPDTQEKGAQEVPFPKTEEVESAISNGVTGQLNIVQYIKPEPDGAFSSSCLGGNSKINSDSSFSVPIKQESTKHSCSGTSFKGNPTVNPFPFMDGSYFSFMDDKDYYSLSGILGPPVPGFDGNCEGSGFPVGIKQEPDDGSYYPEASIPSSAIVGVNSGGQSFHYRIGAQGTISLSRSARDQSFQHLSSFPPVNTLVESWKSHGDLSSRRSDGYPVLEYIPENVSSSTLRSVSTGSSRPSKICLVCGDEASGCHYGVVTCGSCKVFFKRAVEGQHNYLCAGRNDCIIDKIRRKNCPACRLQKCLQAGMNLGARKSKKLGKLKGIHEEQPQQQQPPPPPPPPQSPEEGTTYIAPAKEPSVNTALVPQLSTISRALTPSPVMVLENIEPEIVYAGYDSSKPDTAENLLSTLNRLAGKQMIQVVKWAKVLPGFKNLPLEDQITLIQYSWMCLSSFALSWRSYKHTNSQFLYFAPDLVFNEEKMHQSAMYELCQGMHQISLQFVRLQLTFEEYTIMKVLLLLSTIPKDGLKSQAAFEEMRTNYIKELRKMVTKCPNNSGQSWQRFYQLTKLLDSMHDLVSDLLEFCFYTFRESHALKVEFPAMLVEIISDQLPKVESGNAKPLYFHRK
- Protocol summary: APRn selectivity: transactivation in HEK293T cells transiently expressing hMR
- Assay type: cell-based
- Condition info: aldosterone 10^−9 M, mean±SEM
Measured property: MR Antagonist efficacy (%)
Kindly format the answer as number then unit.

Need MR Antagonist efficacy (%) of C[C@]12CC[C@H](F)C[C@@H]1CC[C@@H]1[C@@H]2CC[C@]2(C)[C@@H](O)CC[C@@H]12 [APR-40, 3β-Fluoro-5α-androstan-17β-ol] , thanks. 0.4 ± 2.6%

Need MR Antagonist efficacy (%) of C[C@@H]1CCC2C3CC=C4C[C@@H](F)CC[C@]4(C)C3CC[C@]2(C)[C@H]1F (stereo partly shown) [APR-19] , thanks. −1.0 ± 3.5%

Need MR Antagonist efficacy (%) of CC#C[C@]1(O)CCC2C3CC[C@H]4CCCC[C@]4(C)C3CC[C@@]21C (stereo partly drawn) [APR-42, 17α-(1-Propynyl)-5α-androstan-17β-ol] , thanks. 0.4 ± 2.6%

Need MR Antagonist efficacy (%) of CC#C[C@]1(O)CCC2C3CC[C@H]4CCCC[C@@H]4C3CC[C@@]21C (stereo partly shown) [APR-54] , thanks. 3.4 ± 6.2%

Need MR Antagonist efficacy (%) of CC(=O)[C@H]1CC[C@H]2[C@@H]3CC=C4C[C@@H](F)CC[C@]4(C)[C@H]3CC[C@]12C [APR-16, 3β-Fluoropregn-5-en-20-one] , thanks. −2.7 ± 3.3%

Need MR Antagonist efficacy (%) of CC#C[C@]1(O)CCC2C3CC=C4C[C@@H](F)CC[C@]4(C)C3CC[C@@]21C (stereo partly shown) [APR-44] , thanks. 1.6 ± 5.5%

Need MR Antagonist efficacy (%) of C[C@]12CCC3C(CC=C4C[C@@H](F)CC[C@@H]43)C1CCC2=O (stereo partly drawn) [APR-47, 3β-Fluoro-19-nor-androst-5-en-17-one] , thanks. 2.2 ± 2.1%
